Test system: BK polyomavirus
Experiment: Antiviral activity against BKV Gardner ATCC VR837 infected in human WI38 cells assessed as reduction in viral DNA level after 7 days by real time PCR assay
Format: functional, organism-based
Conditions: Betapolyomavirus hominis, WI-38, 168 h
QUANTITY_NAME: pEC50
Friendly reminder that pEC50 comes from taking -log10 of the concentration in mol/L.

Looking up "CCCCCCCCCO[C@@H]1O[C@H](CO)[C@@H](O)[C@H](O)[C@H]1O" , I found its pEC50 recorded as 4.01

====

Assay: Selectivity index, ratio of CC50 for human WI38 cells preincubated for 2 hrs before viral infection measured after 7 days by real time PCR assay to EC50 for BKV Gardner ATCC VR837
Assay type: toxicity, cell-based, WI-38
Conditions: WI38 cells, read-out: Ratio CC50/EC50
Listed here: items and their measured selectivity ratio at 168 h.

Guide cases for selectivity ratio at 168 h, answers given:
- MOLECULE: "C[C@@H]1[C@H](O)[C@@H](C)/C=C/C=C/C=C/C=C/C=C/C=C/C=C/[C@H](O[C@@H]2O[C@H](C)[C@@H](O)[C@H](N)[C@@H]2O)C[C@@H]2O[C@](O)(C[C@@H](O)C[C@@H](O)[C@H](O)CC[C@@H](O)C[C@@H](O)CC(=O)O[C@H]1C)C[C@H](O)[C@H]2C(=O)O"
  QUANTITY_NAME: "selectivity ratio at 168 h"
  RESULT: 2.99
- MOLECULE: "CN1CCN(C2=Nc3cc(Cl)ccc3Nc3ccccc32)CC1"
  QUANTITY_NAME: "selectivity ratio at 168 h"
  RESULT: 4.9
- MOLECULE: "CN(C)CCCN1c2ccccc2Sc2ccc(Cl)cc21"
  QUANTITY_NAME: "selectivity ratio at 168 h"
  RESULT: 1.98
- MOLECULE: "COc1cc2c(c(OC)c1OC)-c1ccc(OC)c(=O)cc1[C@@H](NC(C)=O)CC2"
  QUANTITY_NAME: "selectivity ratio at 168 h"
  RESULT: 3.63
- MOLECULE: "CCN(CC)CCCC(C)Nc1ccnc2cc(Cl)ccc12 (stereo unspecified)"
  QUANTITY_NAME: "selectivity ratio at 168 h"
  RESULT: 5.32

Next molecule, please.
The molecule "CCCCCCCCCO[C@@H]1O[C@H](CO)[C@@H](O)[C@H](O)[C@H]1O" showed selectivity ratio at 168 h equal to 16

====

Assay: Cytotoxicity against human WI38 cells by conventional neutral red assay
Type: cell-based, WI-38
QUANTITY_NAME: CC50 (µM)
Answer with a number only, understood to be in µM.

Entry "CCCCCCCCCO[C@@H]1O[C@H](CO)[C@@H](O)[C@H](O)[C@H]1O" ; CC50 = 126

====

Test: Cytotoxicity against human WI38 cells assessed as reduction in cellular DNA level preincubated for 2 hrs before viral infection measured after 7 days by real time PCR assay
Format: cell-based, WI-38
Conditions: wi-38, 168 h
QUANTITY_NAME: CC50 (µM)
Only the number, expressed in µM, is required.

// recorded CC50 for "NYSTATIN" : 48.6

====

Assay: Selectivity index, ratio of CC50 for human WI38 cells after 7 days by real time PCR assay to EC50 for BKV Gardner ATCC VR837
Format: toxicity, cell-based, WI-38
Settings: read-out: Ratio CC50/EC50
QUANTITY_NAME: selectivity ratio at 168 h
# answer = number (no unit)

# selectivity ratio at 168 h (compound: "CCCCCCCCCO[C@@H]1O[C@H](CO)[C@@H](O)[C@H](O)[C@H]1O" ) is 1.25

====

Assay: Selectivity index, ratio of CC50 for human WI38 cells by conventional neutral red assay to EC50 for BKV Gardner ATCC VR837
Assay type: toxicity, cell-based, WI-38
Conditions: read-out: Ratio CC50/EC50
QUANTITY_NAME: selectivity ratio
Response field accepts a number only; no unit should be typed.

Just so you know, measured selectivity ratio for "CCCCCCCCCO[C@@H]1O[C@H](CO)[C@@H](O)[C@H](O)[C@H]1O" came out at 30.5
